Target: peroxidase-anti-peroxidase (PAP) immune complexes (UniProt P00433)
Sequence (P00433 31-338, one chain of several): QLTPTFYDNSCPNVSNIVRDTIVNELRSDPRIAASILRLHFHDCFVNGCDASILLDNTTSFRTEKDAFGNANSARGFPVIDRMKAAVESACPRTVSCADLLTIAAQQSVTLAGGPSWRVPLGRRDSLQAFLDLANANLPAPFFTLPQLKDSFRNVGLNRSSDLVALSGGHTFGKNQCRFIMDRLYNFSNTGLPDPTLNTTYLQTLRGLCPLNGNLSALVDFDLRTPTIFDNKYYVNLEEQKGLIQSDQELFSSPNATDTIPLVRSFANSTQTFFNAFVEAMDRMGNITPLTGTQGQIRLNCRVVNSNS
Experiment: reverse ELISA: PAP pre-incubated with peptide; competitor: immobilised RF
Positions of bridges follow the written chain, without caps; N, C: chain ends. No end group written: not given here.
metric name: OD 405 nm (OD)
// units = OD; emit number, no label

State its OD 405 nm: DCAWHLGELAACT (cyclized by a disulfide bond between the two cysteine residues) [… (SEQ ID NO:42)]
0.622

State its OD 405 nm: PCARHLGELVWCT (disulfide 2-12 (inferred)) [… (SEQ ID NO:41)]
0.106

State its OD 405 nm: DCARHLGELVWCT (disulfide 2-12 (inferred)) [… (SEQ ID NO:4)]
0.109

State its OD 405 nm: RCARHLGELVWCT (disulfide 2-12 (inferred)) [… (SEQ ID NO:5)]
0.152
